system: Saccharomyces cerevisiae; test: protein stability index of tFT-peptide fusion (C-terminal peptide) (PSI (0-1 scale)); higher = more stable (slower turnover); details: genetic background: wild type; temperature: 30 C;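 note: PSI is a weighted mean of sequencing reads over stability bins, variants kept only with over 10 reads, mCherry proximal and sfGFP distal, peptide attached via GGGS linker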
readout.kind: protein stability index

> print(dat)
    biopolymer.sequence        measurement.target  measured
 1         GFSTCCLFWLTV  Saccharomyces cerevisiae     0.529
 2         LFFGVACSWFSV  Saccharomyces cerevisiae     0.621
 3         KKNKLKDSIKNI  Saccharomyces cerevisiae     0.663
 4         CVCPLPLDSPVS  Saccharomyces cerevisiae     0.629
 5         LSPPLPARPAAS  Saccharomyces cerevisiae     0.687
 6         DCKTCVVGCELF  Saccharomyces cerevisiae     0.697
 7         TILAGSSRGTLR  Saccharomyces cerevisiae     0.659
 8         SSQLKMESLFII  Saccharomyces cerevisiae     0.624
 9         CCLFCLLWSLLY  Saccharomyces cerevisiae      0.64
10         STLPPSRLSSPL  Saccharomyces cerevisiae     0.638
11         LLFLPRPPVCSR  Saccharomyces cerevisiae     0.649
12         EPNRIAKYYKKY  Saccharomyces cerevisiae     0.686
13         VFLLFFFGLFVF  Saccharomyces cerevisiae     0.415
14         GGRGVGVVLGVC  Saccharomyces cerevisiae     0.522
15         PPPPSLPPPLPL  Saccharomyces cerevisiae     0.698
16         RNKTNYIQKLTK  Saccharomyces cerevisiae     0.665
17         RPLPPLIPSSFS  Saccharomyces cerevisiae     0.698
18         SDVCVYVIRDIG  Saccharomyces cerevisiae     0.565
19         AFCPLLLRGTAP  Saccharomyces cerevisiae     0.697
20         EFVFLLSNTFNS  Saccharomyces cerevisiae     0.749
21         WGRRVRVEGVVL  Saccharomyces cerevisiae     0.613
22         GGRTFHPLWGTT  Saccharomyces cerevisiae     0.735
23         LPPPRPHLSFVP  Saccharomyces cerevisiae      0.72
24         WFFPVSPPVMAS  Saccharomyces cerevisiae     0.288
25         PPSPLPSPPPTF  Saccharomyces cerevisiae     0.718
26         ELRADRTYTGIV  Saccharomyces cerevisiae     0.752
27         CGWASSWHSGLH  Saccharomyces cerevisiae     0.687
28         SWAGGRWRRVPV  Saccharomyces cerevisiae     0.658
29         DQESTRLRWGTS  Saccharomyces cerevisiae      0.66
30         NRGYRKDDKGMR  Saccharomyces cerevisiae     0.689
31         PHGPPAHLRSRP  Saccharomyces cerevisiae     0.737
32         PLPALRPGAAPH  Saccharomyces cerevisiae     0.746
33         SEPADGRDRMAE  Saccharomyces cerevisiae     0.689
34         WFSVRQLVFVSG  Saccharomyces cerevisiae     0.218
35         FPLGMFWVCFFV  Saccharomyces cerevisiae     0.264

Sourced from the supplement of paper PMC10724198
